PBM binding z-score overview
# System: RXRa homodimer (NR concentration 180 nM)
# TEST METHOD NOTES: PBM binding z-score (relative to random genomic background probes); higher = stronger binding; sequences stand for … in GC…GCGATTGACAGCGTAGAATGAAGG
MEASUREMENT NAME: PBM binding z-score

| SEQ STRING | MEASURED VALUE |
| --- | --- |
| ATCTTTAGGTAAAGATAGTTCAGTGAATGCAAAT | 0.298 |
| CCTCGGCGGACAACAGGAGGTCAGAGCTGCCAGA | 1.71 |
| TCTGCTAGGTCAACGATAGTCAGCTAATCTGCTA | 2.63 |
| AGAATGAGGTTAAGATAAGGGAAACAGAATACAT | 2.6 |
| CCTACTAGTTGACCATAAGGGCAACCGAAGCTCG | 0.509 |
| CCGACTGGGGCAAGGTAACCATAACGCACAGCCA | 0.481 |
| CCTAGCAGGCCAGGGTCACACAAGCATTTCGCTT | 4.27 |
| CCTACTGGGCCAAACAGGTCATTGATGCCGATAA | 1.38 |
| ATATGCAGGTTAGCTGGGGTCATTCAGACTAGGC | 5.56 |
| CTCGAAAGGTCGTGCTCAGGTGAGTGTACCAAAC | 4.95 |
| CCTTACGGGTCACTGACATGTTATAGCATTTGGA | 5.13 |
| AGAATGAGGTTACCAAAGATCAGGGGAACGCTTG | 2.79 |
| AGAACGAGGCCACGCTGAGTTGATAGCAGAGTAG | 0.15 |
| TCTGCTAGGTCAACGAAGGTCAGCTAATCTGCTA | 4.18 |
| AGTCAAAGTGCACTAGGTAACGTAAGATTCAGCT | 0.453 |
| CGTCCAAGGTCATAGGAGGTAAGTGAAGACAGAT | 5.29 |
| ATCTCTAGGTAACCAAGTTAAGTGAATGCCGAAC | 0.154 |
| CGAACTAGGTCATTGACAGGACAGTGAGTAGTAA | 2.42 |
| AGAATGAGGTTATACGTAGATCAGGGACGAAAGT | 2.14 |
| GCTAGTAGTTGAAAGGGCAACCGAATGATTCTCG | 1.47 |
| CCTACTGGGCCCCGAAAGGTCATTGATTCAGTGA | 4.99 |
| TCGAGTAGTTTACCAATGGGGCATTCAGCTTTCT | -0.356 |
| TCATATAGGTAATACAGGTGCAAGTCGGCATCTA | 0.938 |
| CCTACCGGGCCACGAAAGGTCATTGATTCAGTGA | 4.98 |
| CCGACTGGGGCATAAGGTGACCATAAGCCAGCCC | 0.516 |
| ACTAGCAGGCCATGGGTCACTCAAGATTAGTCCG | 1.75 |
| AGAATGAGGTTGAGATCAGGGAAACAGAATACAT | 0.612 |
| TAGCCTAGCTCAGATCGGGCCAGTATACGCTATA | -0.698 |
| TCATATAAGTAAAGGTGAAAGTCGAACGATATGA | 2.04 |
| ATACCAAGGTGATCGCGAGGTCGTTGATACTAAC | 1.42 |
| GCTTGTAGATCAAGGTTAGGAAAGACTAAGCTAA | 0.0572 |
| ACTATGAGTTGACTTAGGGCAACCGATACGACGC | 0.819 |
| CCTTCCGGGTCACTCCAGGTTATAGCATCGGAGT | 4.33 |
| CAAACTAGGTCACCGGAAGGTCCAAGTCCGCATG | 3.81 |
| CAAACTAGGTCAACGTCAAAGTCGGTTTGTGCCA | 2.9 |
| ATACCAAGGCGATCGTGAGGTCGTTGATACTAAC | 0.794 |
| ATCGCTAGGTAAGACTCAGTTCAGTGAAGAACGC | -0.428 |
| TCATGTAGGTAATACAGGTGAAAGTCGGCATCTA | 0.579 |
| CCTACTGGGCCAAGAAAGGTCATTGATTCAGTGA | 4.4 |
| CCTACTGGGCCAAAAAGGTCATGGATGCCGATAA | 5.58 |
| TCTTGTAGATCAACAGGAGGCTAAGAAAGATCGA | -0.111 |
| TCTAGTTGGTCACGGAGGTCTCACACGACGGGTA | 1.01 |
| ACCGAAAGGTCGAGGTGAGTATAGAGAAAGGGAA | 4.35 |
| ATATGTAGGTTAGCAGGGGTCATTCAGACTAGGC | 6.36 |
| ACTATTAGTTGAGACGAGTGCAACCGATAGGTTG | 0.199 |
| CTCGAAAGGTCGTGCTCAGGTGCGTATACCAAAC | 4.39 |
| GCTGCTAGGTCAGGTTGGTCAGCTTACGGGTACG | 0.756 |
| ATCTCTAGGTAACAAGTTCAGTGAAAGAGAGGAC | 0.955 |
| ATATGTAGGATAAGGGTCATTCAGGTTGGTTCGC | 4.8 |
| CCTACTGGGCCCTCAGGTCATTGATATCAACGTT | 0.755 |
| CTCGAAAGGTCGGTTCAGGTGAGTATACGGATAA | 2.23 |

====

# System: THRa homodimer (NR concentration 90 nM)
# TEST METHOD NOTES: PBM binding z-score (relative to random genomic background probes); higher = stronger binding; sequences stand for … in GC…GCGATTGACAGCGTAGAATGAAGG
Hi, to clarify the labels: Y covers PBM binding z-score from 0.8 upward, N covers anything below 0.8.

| SEQ STRING | DISCRETE LABEL |
| --- | --- |
| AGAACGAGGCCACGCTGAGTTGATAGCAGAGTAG | N |
| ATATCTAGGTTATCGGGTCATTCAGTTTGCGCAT | Y |
| CAAACTAGGTGAAAGGTCAAAGTCGAGCCAACCA | Y |
| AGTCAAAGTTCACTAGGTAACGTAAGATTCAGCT | N |
| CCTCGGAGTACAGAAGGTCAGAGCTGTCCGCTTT | N |
| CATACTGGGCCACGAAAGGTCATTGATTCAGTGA | Y |
| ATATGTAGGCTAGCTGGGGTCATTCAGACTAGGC | Y |
| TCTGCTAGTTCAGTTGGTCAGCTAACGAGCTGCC | N |
| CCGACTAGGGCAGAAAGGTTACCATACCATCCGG | N |
| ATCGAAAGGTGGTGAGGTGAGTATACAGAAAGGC | Y |
| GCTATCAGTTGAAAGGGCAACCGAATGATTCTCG | N |
| TCTCGTAGATCAATAGAGGTTAAGAAAGTGCGCT | N |
| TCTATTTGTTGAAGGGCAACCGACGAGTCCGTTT | N |
| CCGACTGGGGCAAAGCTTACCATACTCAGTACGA | N |
| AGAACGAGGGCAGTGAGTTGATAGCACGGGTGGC | N |
| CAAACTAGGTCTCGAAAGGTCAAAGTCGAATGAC | Y |
| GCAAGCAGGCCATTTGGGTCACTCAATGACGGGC | N |
| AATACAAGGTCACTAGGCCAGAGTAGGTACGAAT | Y |
| ATATGTAGGTTACATCCAGGTCATTCAGGCTATG | Y |
| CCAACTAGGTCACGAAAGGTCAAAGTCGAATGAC | Y |
| ACTAGCAGGCCAAGTTTGGGTCACCCAAACAAAG | Y |
| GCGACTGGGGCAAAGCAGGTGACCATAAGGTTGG | N |
| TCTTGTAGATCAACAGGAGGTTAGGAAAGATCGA | N |
| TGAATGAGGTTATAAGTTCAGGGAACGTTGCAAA | N |
